Assay Notes: Visual solubility of Compound A, Form I in solvents
Type: physicochemical
Condition Info: organic solvent or mixture, thermodynamic from solid; 1-Butanol; 50 mg in 10 mL, stirred, heated to 40° C.
Assay Endpoint: solubility

Request: Answer with the recorded solubility for the compound listed here: CC1(C)CC=C(c2nc(C3CC(C)(C)OC(C)(C)C3)ccc2NC(=O)c2nc(C#N)c[nH]2)CC1 [Compound A, Form I]
Result: > 5000 µg/mL

----------
Assay Notes: Visual solubility of Compound A, Form I in solvents
Format: physicochemical
Condition Info: organic solvent or mixture, thermodynamic from solid; Ethanol; 50 mg in 10 mL, stirred, heated to 40° C.
Assay Endpoint: solubility

Request: Supply recorded solubility for CC1(C)CC=C(c2nc(C3CC(C)(C)OC(C)(C)C3)ccc2NC(=O)c2nc(C#N)c[nH]2)CC1 [Compound A, Form I] here.
Result: > 5000 µg/mL

----------
Assay Notes: Visual solubility of Compound A, Form I in solvents
Assay type: physicochemical
Condition Info: organic solvent or mixture, thermodynamic from solid; Ethyl Acetate; 50 mg in 10 mL, stirred, heated to 40° C.
Text: An automated solid-state form screening of Compound A was done using a binary solvent system. Screening experiments consisted of an array of 13 solvents (water, methanol, ethanol, acetone, acetonitrile, isopropyl alcohol, ethyl acetate, toluene, tetrahydrofuran (THF), dichloromethane, 2-butanone (MEK), 1-butanol, and heptane) under slow evaporation crystallization conditions. […]
Assay Endpoint: solubility

Request: Identify solubility associated with the compound CC1(C)CC=C(c2nc(C3CC(C)(C)OC(C)(C)C3)ccc2NC(=O)c2nc(C#N)c[nH]2)CC1 [Compound A, Form I]
Result: > 5000 µg/mL

----------
Assay Notes: Visual solubility of Compound A, Form I in solvents
Assay type: physicochemical
Condition Info: organic solvent or mixture, thermodynamic from solid; Acetone; 50 mg in 10 mL, stirred, heated to 40° C.
Description: An automated solid-state form screening of Compound A was done using a binary solvent system. Screening experiments consisted of an array of 13 solvents (water, methanol, ethanol, acetone, acetonitrile, isopropyl alcohol, ethyl acetate, toluene, tetrahydrofuran (THF), dichloromethane, 2-butanone (MEK), 1-butanol, and heptane) under slow evaporation crystallization conditions. […]
Assay Endpoint: solubility

Request: Please list solubility recorded for the compound CC1(C)CC=C(c2nc(C3CC(C)(C)OC(C)(C)C3)ccc2NC(=O)c2nc(C#N)c[nH]2)CC1 [Compound A, Form I]
Result: > 5000 µg/mL

----------
Assay Notes: Visual solubility of Compound A, Form I in solvents
Assay type: physicochemical
Condition Info: organic solvent or mixture, thermodynamic from solid; Dichloromethane; 50 mg in 10 mL, stirred, heated to 40° C.
Assay Endpoint: solubility

Request: Consider the molecule CC1(C)CC=C(c2nc(C3CC(C)(C)OC(C)(C)C3)ccc2NC(=O)c2nc(C#N)c[nH]2)CC1 [Compound A, Form I] and give its recorded solubility.
Result: > 5000 µg/mL
